Test system: Bacillus subtilis
assayExplanation: Antibacterial activity against Bacillus subtilis at 1 mg/ml after 24 hr by […]
Format: functional
experimentalSetup: read-out: DIZ
Where a name gives a salt, the structure may show the parent alone.
Recorded measurements of zone of inhibition at 1000 µg/mL, one per entry
Write down the numeric answer in mm and omit the unit.

Request: Entry `CN1CCN(c2c(F)cc3c(=O)c(C(=O)O)cn(CC(=O)O)c3c2F)CC1` , system Bacillus subtilis: what zone of inhibition at 1000 µg/mL was measured?
Result: 1.1

Request: Entry C[C@H]1COc2c(N3CCN(C)CC3)c(F)cc3c(=O)c(C(=O)O)cn1c23 [LEVOFLOXACIN HYDROCHLORIDE] , system Bacillus subtilis: what zone of inhibition at 1000 µg/mL was measured?
Result: 4.6

Request: Entry CCC(C)C(C(=O)O)n1cc(C(=O)O)c(=O)c2cc(F)c(N3CCN(C)CC3)c(F)c21 (configuration not stated) , system Bacillus subtilis: what zone of inhibition at 1000 µg/mL was measured?
Result: 1.2

Request: Entry CN1CCN(c2c(F)cc3c(=O)c(C(=O)O)cn(C(C(=O)O)c4ccccc4)c3c2F)CC1 (configuration not stated) , system Bacillus subtilis: what zone of inhibition at 1000 µg/mL was measured?
Result: 1.05

Request: Entry CC(C)CC(C(=O)O)n1cc(C(=O)O)c(=O)c2cc(F)c(N3CCN(C)CC3)c(F)c21 (configuration not stated) , system Bacillus subtilis: what zone of inhibition at 1000 µg/mL was measured?
Result: 1.15

Request: Entry CC(C)C(C(=O)O)n1cc(C(=O)O)c(=O)c2cc(F)c(N3CCN(C)CC3)c(F)c21 (configuration not stated) , system Bacillus subtilis: what zone of inhibition at 1000 µg/mL was measured?
Result: 1

Request: Entry CN1CCN(c2c(F)cc3c(=O)c(C(=O)O)cn(C(Cc4ccccc4)C(=O)O)c3c2F)CC1 (configuration not stated) , system Bacillus subtilis: what zone of inhibition at 1000 µg/mL was measured?
Result: 1.2
